Tested on: SK-OV-3 ovarian
Experiment: NCI-60 one-dose screen, 48 h (100 = growth as untreated, 0 = no growth, -100 = all killed)
Conditions: 10 µM
This is part of a sample that, as a whole, favours compounds with a hit. Of some 83,000 tested, about 20% had one in any assay.
measured-metric: growth (%)
Provide only the numeric value, understood in %.

Example entries begin here.
O=[N+]([O-])c1ccccc1S(=O)c1ccccc1[N+](=O)[O-]; 99.9
O=C1Cc2ccccc2C(=O)O1; 114
Cc1cccc(C(=O)N(C(C)C)C(C)C)c1; 92.4
CN(C)c1ccc(C(c2ccc(O)cc2)c2ccc(N(C)C)cc2)cc1; 104
O=[N+]([O-])c1ccc(Sc2ccncn2)c([N+](=O)[O-])c1; 102

Reported growth for O=C1NC(=O)C2C(=O)NC(=O)C1C21CCc2ccccc21 (stereo unspecified) was 116

Reported growth for CC(=O)OC(OC(C)=O)C1CCCO1 (stereo unspecified) was 105

Reported growth for `Cn1cnc2nc(Cl)nc(Cl)c21` was 61.2
